Measured inhibition at 10 µM, listed per entry.
Target: hERG potassium channel (Homo sapiens, UniProt Q12809)
Construct: Eurofins
Sequence (Q12809 whole entry): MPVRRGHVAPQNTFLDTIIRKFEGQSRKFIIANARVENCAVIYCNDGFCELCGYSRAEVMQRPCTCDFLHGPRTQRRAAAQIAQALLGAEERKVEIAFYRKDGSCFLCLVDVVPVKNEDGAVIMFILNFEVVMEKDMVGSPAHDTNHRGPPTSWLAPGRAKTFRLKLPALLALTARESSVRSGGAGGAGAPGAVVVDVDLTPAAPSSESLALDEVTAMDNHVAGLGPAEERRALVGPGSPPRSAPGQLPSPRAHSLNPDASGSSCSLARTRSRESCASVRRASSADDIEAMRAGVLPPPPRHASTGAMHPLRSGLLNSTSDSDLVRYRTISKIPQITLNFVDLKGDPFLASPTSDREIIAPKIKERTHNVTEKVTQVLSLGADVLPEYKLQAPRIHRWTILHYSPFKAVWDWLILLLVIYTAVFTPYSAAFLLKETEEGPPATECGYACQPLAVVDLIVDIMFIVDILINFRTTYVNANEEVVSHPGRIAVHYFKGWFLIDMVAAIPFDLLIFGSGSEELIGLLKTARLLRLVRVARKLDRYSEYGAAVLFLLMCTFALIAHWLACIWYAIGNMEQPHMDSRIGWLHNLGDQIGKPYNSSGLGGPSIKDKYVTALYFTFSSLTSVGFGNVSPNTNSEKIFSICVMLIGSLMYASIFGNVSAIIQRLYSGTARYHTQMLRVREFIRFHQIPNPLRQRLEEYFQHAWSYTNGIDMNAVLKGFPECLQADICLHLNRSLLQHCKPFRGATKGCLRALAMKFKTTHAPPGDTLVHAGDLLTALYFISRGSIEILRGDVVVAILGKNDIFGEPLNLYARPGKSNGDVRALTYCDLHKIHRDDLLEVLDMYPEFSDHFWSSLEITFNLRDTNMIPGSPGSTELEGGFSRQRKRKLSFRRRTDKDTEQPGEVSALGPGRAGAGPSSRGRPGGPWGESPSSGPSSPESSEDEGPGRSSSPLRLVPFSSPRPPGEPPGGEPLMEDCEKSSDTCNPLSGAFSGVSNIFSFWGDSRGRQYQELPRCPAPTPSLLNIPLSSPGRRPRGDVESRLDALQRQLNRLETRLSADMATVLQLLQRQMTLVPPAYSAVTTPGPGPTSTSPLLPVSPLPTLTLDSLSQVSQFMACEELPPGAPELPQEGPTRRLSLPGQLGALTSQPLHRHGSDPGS
Test: hERG channel binding assay ([3H]dofetilide displacement)
Conditions: human, probe [3H]dofetilide, 10 μM; mean of two independent measurements; read-out: % inhibit Mean

Some molecules with known inhibition at 10 µM results, for comparison:
- CN(C)c1ccc(-c2cc(=O)[nH]c(-c3ccccc3)n2)cc1 [LOPA87]: 10%
- COc1ccc(C)cc1/C=N/[C@@H]1C[C@@H]2C[C@H]([C@H]1C)C2(C)C [VP331]: 0.7%

Alright, here's another molecule for you.
Req: Entry O=C1NC(c2ccccc2)=N/C1=C\c1cc2ccccc2c2ccccc12 [SG6163F] has what inhibition at 10 µM?
Resp: 38.5%

These measurements were taken from patent US20240226066A1.
